Kindly supply the reported protein stability index values for the records listed here.
B1: SEC22B (parent)
chain: AKQLFRKLNEQSPTRCTLEAGAMT

# Variants of: B1
# Assay summary: protein stability index of a GFP-peptide fusion (GPS, HEK-293T) (PSI 1-6); higher = more stable;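 also: lentivirally expressed fusions sorted by FACS into six bins by GFP to DsRed ratio, PSI derived from sequencing read proportions per bin multiplied by bin number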
# Cond: c terminus: a fixed tail appended

Which protein stability index is reported for this variant? "L8K"
3.07

// query: "R15L"
3.03

Do the same for "A20P" please
2.65

Likewise for "A1D" ?
2.98

Follow-up entry: "L4E"
3.62

Item: "T24F"
1.99

# iterate: "M23K"
2.45

Another: "P13N"
1.86

And for "R15K" ?
3.2

// query: "C16Y"
2.79

What would you report for "A20N" ?
3.08

What do you have for "G21V" ?
4.07

What do you have for "T14H" ?
1.81

Origin of measurements: the supplement of paper PMC10567573
